B1: POU domain, class 2, transcription factor 3, residues 186 to 260; numbered along this chain, Q9UKI9 (parent)
chain: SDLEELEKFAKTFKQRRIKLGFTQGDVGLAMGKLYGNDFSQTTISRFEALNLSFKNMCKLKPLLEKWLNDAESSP

variants of: B1; test: abundance fitness (aPCA) (normalised: wild type 0, dead -1); higher = more abundant; growth selection in yeast, the domain comes from the species named; details: Homo sapiens
MEASURE: abundance fitness
Answer with the value's number alone.

Examples with answers:
F9G = -0.387
N69F = 0.061
L63R = -0.022
S73K = -0.06
E48I = -1.02
S53I = -0.556

Please give the documented abundance fitness of "P75S"
-0.067

Respond only with abundance fitness recorded for "L29F"
-0.099

Look up and state reported abundance fitness for "L64V"
-0.197

Please give measured abundance fitness of the following entry: "K19S"
0.11

Tell us which abundance fitness value is on record for "L68M"
-0.109

Please give measured abundance fitness of the following entry: "K55Y"
0.069
